# System: FT3469 (normal neural stem cell line);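 also: cell Painting imaging in 384-well plates, CellProfiler features reduced to at least 20 principal components, Euclidean distance versus same-plate DMSO vehicle wells (0.1% v/v), median over six images per well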
# protocol description: phenotypic distance (Euclidean, principal components) from DMSO controls (arbitrary units); higher = stronger morphological change
# conditions used: 12.3 nM; exposure time: 72 h
Structures can show the parent of a compound that is named as a salt.

[
  {
    "compound": "Cc1cc(CN2CCN(c3c(Br)cnc4nc(-c5ccc(N6CCN(C)CC6)cc5)[nH]c34)CC2)no1",
    "phenotypic distance": 0.929
  },
  {
    "compound": "Cc1ccc(C(=O)Nc2ccc(CN3CCN(C)CC3)c(C(F)(F)F)c2)cc1C#Cc1cnc2cccnn12 [Ponatinib]",
    "phenotypic distance": 2.15
  },
  {
    "compound": "COc1ccc2[nH]c([S+]([O-])Cc3ncc(C)c(OC)c3C)nc2c1 (stereo not drawn) [Omeprazole]",
    "phenotypic distance": 0.698
  },
  {
    "compound": "CC(C)C[C@H](NC(=O)CNC(=O)c1cc(Cl)ccc1Cl)B(O)O [Ixazomib]",
    "phenotypic distance": 2.8
  },
  {
    "compound": "CC(C)NCC(O)c1ccc(O)c(O)c1 (stereo not drawn) [Isoproterenol hydrochloride]",
    "phenotypic distance": 0.977
  },
  {
    "compound": "C/C=C1\\NC(=O)[C@H]2CSSCC/C=C/[C@H](CC(=O)N[C@H](C(C)C)C(=O)N2)OC(=O)[C@H](C(C)C)NC1=O [Romidepsin]",
    "phenotypic distance": 2.82
  },
  {
    "compound": "NCCNc1ccc(NCCN)c2c1C(=O)c1ccncc1C2=O [Pixantrone dimaleate]",
    "phenotypic distance": 1.28
  },
  {
    "compound": "CC(=O)O[C@@]12CO[C@@H]1C[C@H](O)[C@@]1(C)C(=O)[C@H](O)C3=C(C)[C@@H](OC(=O)[C@H](O)[C@@H](NC(=O)OC(C)(C)C)c4ccccc4)C[C@@](O)([C@@H](OC(=O)c4ccccc4)[C@H]21)C3(C)C [Docetaxel]",
    "phenotypic distance": 4.02
  },
  {
    "compound": "CSc1ccc2c(c1)N(CCC1CCCCN1C)c1ccccc1S2 (stereo not drawn) [Thioridazine hydrochloride]",
    "phenotypic distance": 1.1
  },
  {
    "compound": "CN1CCC(NC(=O)c2cc(-c3c(O)cc(O)cc3Oc3ccc([N+](=O)[O-])cc3)on2)CC1 [NMS-E973]",
    "phenotypic distance": 1.21
  },
  {
    "compound": "c1ccc2c(c1)[I+]c1ccccc1-2 [Diphenyleneiodonium chloride]",
    "phenotypic distance": 1.64
  },
  {
    "compound": "Nc1ccn([C@@H]2O[C@H](CO)[C@@H](O)[C@@H]2O)c(=O)n1 [Cytarabine]",
    "phenotypic distance": 1.74
  },
  {
    "compound": "CC(NCCC(c1ccccc1)c1ccccc1)c1ccccc1 (stereo not drawn) [Fendiline hydrochloride]",
    "phenotypic distance": 0.264
  },
  {
    "compound": "COc1nc(C)nc(Cl)c1NC1=NCCN1 [Moxonidine]",
    "phenotypic distance": 0.821
  },
  {
    "compound": "CC1(C(=O)O)C2CCC(O2)C1(C)C(=O)O (stereo not drawn) [Cantharidic Acid]",
    "phenotypic distance": 0.717
  },
  {
    "compound": "CCn1c(-c2nonc2N)nc2cnc(Oc3cccc(NC(=O)c4ccc(OCCN5CCOCC5)cc4)c3)cc21",
    "phenotypic distance": 1.73
  },
  {
    "compound": "COc1cc2ncnc(Nc3cccc(Br)c3)c2cc1OC",
    "phenotypic distance": 0.611
  },
  {
    "compound": "Cc1c(-c2ccc(-c3ccccc3F)cc2)nc2ccc(F)cc2c1C(=O)O [Brequinar sodium salt hydrate]",
    "phenotypic distance": 0.439
  },
  {
    "compound": "Cc1c2ccncc2c(C)c2c1[nH]c1ccccc12 [Ellipticine]",
    "phenotypic distance": 0.711
  },
  {
    "compound": "C=CC(=O)Nc1cccc(Oc2nc(Nc3ccc(N4CCN(C)CC4)cc3)nc3ccsc23)c1 [Olmutinib]",
    "phenotypic distance": 1.16
  },
  {
    "compound": "CC(C)C(=O)OCC(=O)[C@@]12O[C@H](C3CCCCC3)O[C@@H]1C[C@H]1[C@@H]3CCC4=CC(=O)C=C[C@]4(C)[C@H]3[C@@H](O)C[C@@]12C [Ciclesonide]",
    "phenotypic distance": 1.86
  },
  {
    "compound": "CC(=O)CC(c1ccc([N+](=O)[O-])cc1)c1c(O)c2ccccc2oc1=O (stereo not drawn) [Acenocoumarol]",
    "phenotypic distance": 0.712
  },
  {
    "compound": "COc1cc([C@@H]2c3cc4c(cc3[C@@H](O[C@@H]3O[C@@H]5CO[C@@H](c6cccs6)O[C@H]5[C@H](O)[C@H]3O)[C@H]3COC(=O)[C@H]23)OCO4)cc(OC)c1O [Teniposide]",
    "phenotypic distance": 2.44
  }
]

Entry source: the supplement of paper PMC13207355
